Values from patent EP4810061A1

# experiment-summary: In vitro plasma stability of payload compounds
# Assay type: in vitro ADME, Human
# test-settings: 5 µM, 37°C
Each entry below lists one item and its recorded Residual content of parent payload at 120 minutes (relative to 0 minutes) Human plasma value.
Unit % implied. Number only.

Completed entries (count: 4):
(Q) Recorded Residual content of parent payload at 120 minutes (relative to 0 minutes) Human plasma for `[2H]C1([2H])OC(=O)[C@](O)(CC)c2cc3n(c(=O)c21)Cc1c-3nc2cc(F)c(C)c3c2c1[C@@H](NC(=O)C[C@H](C)O)CC3` , please?
(A) 94.89

(Q) Request: `[2H]C1([2H])OC(=O)[C@](O)(CC)c2cc3n(c(=O)c21)Cc1c-3nc2cc(F)c(C)c3c2c1[C@@H](NC(=O)C[C@@H](C)O)CC3`
(A) 107.73

(Q) Now give it for `[2H]C1([2H])OC(=O)[C@](O)(CC)c2cc3n(c(=O)c21)Cc1c-3nc2cc(F)c(C)c3c2c1[C@@H](NC(=O)[C@H](O)C1CC1)CC3` too.
(A) 105.54

(Q) Query `CC[C@@]1(O)C(=O)OCc2c1cc1n(c2=O)Cc2c-1nc1cc(F)c(C)c3c1c2[C@@H](NC(=O)CO)CC3` next
(A) 87.57

Next:
(Q) What value of Residual content of parent payload at 120 minutes (relative to 0 minutes) Human plasma has been recorded for this entry: `[2H]C1([2H])OC(=O)[C@](O)(CC)c2cc3n(c(=O)c21)Cc1c-3nc2cc(F)c(C)c3c2c1[C@@H](NC(=O)CO)CC3`
(A) 111.04

---

# experiment-summary: In vitro plasma stability of payload compounds
# Format: in vitro ADME, CD1 mouse
# test-settings: 5 µM, 37°C
result-type: Residual content of parent payload at 120 minutes (relative to 0 minutes) CD1 mouse plasma (%)
Number only, in %; omit the unit.

Worked examples follow.
(Q) Please give the measured Residual content of parent payload at 120 minutes (relative to 0 minutes) CD1 mouse plasma for this compound: `CC[C@@]1(O)C(=O)OCc2c1cc1n(c2=O)Cc2c-1nc1cc(F)c(C)c3c1c2[C@@H](NC(=O)CO)CC3`
(A) 95.42

(Q) What do we get for `[2H]C1([2H])OC(=O)[C@](O)(CC)c2cc3n(c(=O)c21)Cc1c-3nc2cc(F)c(C)c3c2c1[C@@H](NC(=O)[C@H](O)C1CC1)CC3` ?
(A) 104.97

(Q) Moving on to the next compound: `[2H]C1([2H])OC(=O)[C@](O)(CC)c2cc3n(c(=O)c21)Cc1c-3nc2cc(F)c(C)c3c2c1[C@@H](NC(=O)CO)CC3`
(A) 102.54

(Q) Request: `[2H]C1([2H])OC(=O)[C@](O)(CC)c2cc3n(c(=O)c21)Cc1c-3nc2cc(F)c(C)c3c2c1[C@@H](NC(=O)C[C@H](C)O)CC3`
(A) 105.93

Continuing:
(Q) # Residual content of parent payload at 120 minutes (relative to 0 minutes) CD1 mouse plasma lookup, item `[2H]C1([2H])OC(=O)[C@](O)(CC)c2cc3n(c(=O)c21)Cc1c-3nc2cc(F)c(C)c3c2c1[C@@H](NC(=O)C[C@@H](C)O)CC3`
(A) 96.02
